target: PDE4B1 (Homo sapiens, UniProt Q07343); construct: made in house; host or cells: SF21 insect cells (baculovirus; virus made in SF9 cells, pCR-Bac vector); experiment: Inhibition of PDE4 activity (PDE4B1, SPA assay); format: biochemical; conditions: recombinant PDE4B1, 0.5 μM cAMP; read-out: PDE4B1 Inhibitory values measured as -logIC50 (converted)
Sequence (Q07343 whole entry): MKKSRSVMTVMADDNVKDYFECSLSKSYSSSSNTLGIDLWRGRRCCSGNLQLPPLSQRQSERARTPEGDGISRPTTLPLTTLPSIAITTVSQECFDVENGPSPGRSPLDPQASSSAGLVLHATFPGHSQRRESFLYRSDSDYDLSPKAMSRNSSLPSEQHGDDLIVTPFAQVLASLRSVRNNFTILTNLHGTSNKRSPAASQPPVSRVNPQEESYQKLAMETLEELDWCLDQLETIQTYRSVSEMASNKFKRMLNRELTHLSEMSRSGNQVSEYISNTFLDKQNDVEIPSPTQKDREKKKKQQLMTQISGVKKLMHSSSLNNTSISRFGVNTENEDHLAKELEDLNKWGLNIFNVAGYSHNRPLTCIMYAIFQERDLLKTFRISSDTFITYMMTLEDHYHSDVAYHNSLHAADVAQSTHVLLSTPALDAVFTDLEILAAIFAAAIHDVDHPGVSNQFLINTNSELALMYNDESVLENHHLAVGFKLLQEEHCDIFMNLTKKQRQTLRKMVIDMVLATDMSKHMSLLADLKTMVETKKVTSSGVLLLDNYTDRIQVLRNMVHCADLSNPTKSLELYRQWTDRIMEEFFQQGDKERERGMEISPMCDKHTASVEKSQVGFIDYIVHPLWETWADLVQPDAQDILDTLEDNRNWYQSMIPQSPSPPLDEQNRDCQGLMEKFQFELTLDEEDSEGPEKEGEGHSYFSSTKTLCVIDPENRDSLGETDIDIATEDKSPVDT
measurement-label: IC50

// known answers, use as guide
[[record]]
compound_string = "COc1ccc(C2=NN(C3CCN(C(=O)[C@@H](Cc4c[nH]cn4)NC(=O)c4c[nH]c5c(-c6c(OCC7CC7)ccc7c6OCO7)ncnc45)CC3)C(=O)[C@@H]3CCCC[C@H]23)cc1OC"
system_tested = "PDE4B1 (Homo sapiens, UniProt Q07343)"
result = "< 1 nM"

[[record]]
compound_string = "COc1ccc(C2=NN(C3CCN(C(=O)[C@H](Cc4cccnc4)NC(=O)c4c(C)[nH]c5c(-c6c(OCC7CC7)ccc7c6OCO7)ncnc45)CC3)C(=O)[C@@H]3CCCC[C@H]23)cc1OC"
system_tested = "PDE4B1 (Homo sapiens, UniProt Q07343)"
result = "< 1 nM"

[[record]]
compound_string = "COc1cc(OCC2CC2)c(-c2ncnc3c(C(=O)N[C@H](Cc4ccccc4)C(=O)N4CCC(N5N=C(c6ccc(OC)c(OC)c6)CC(C)(C)C5=O)CC4)c(C)[nH]c23)cc1F"
system_tested = "PDE4B1 (Homo sapiens, UniProt Q07343)"
result = "1 to 10 nM"


Form field - read-out: IC50; system: PDE4B1 (Homo sapiens, UniProt Q07343); submitted item: COc1ccc(C2=NN(C3CCN(C(=O)[C@@H](Cc4ccc(F)cc4)NC(=O)c4c[nH]c5c(-c6c(OCC7CC7)ccc7c6OCO7)ncnc45)CC3)C(=O)[C@@H]3CCCC[C@H]23)cc1OC
< 1 nM

Form field - read-out: IC50; system: PDE4B1 (Homo sapiens, UniProt Q07343); submitted item: COc1ccc(C2=NN(C3CCN(C(=O)[C@@H](Cc4ccccc4)NC(=O)c4c(C)[nH]c5c(-c6c(OCC7CC7)ccc7c6OCO7)ncnc45)CC3)C(=O)C(C)(C)C2)cc1OC
< 1 nM

Form field - read-out: IC50; system: PDE4B1 (Homo sapiens, UniProt Q07343); submitted item: COc1ccc(C2=NN(C3CCN(C(=O)[C@@H](Cc4ccc(C(F)(F)F)cc4)NC(=O)c4c[nH]c5c(-c6c(OCC7CC7)ccc7c6OCO7)ncnc45)CC3)C(=O)[C@@H]3CCCC[C@H]23)cc1OC
1 to 10 nM

Form field - read-out: IC50; system: PDE4B1 (Homo sapiens, UniProt Q07343); submitted item: COc1ccc(C2=NN(C3CCN(C(=O)[C@@H](C)NC(=O)c4c[nH]c5c(-c6c(OCC7CC7)ccc7c6OCO7)ncnc45)CC3)C(=O)[C@@H]3CCCC[C@H]23)cc1OC
< 1 nM

Form field - read-out: IC50; system: PDE4B1 (Homo sapiens, UniProt Q07343); submitted item: CC[C@H](C)[C@H](NC(=O)c1c[nH]c2c(-c3c(OCC4CC4)ccc4c3OCO4)ncnc12)C(=O)N1CCC(N2N=C(c3ccc(OC)c(OC)c3)[C@H]3CCCC[C@H]3C2=O)CC1
< 1 nM

Form field - read-out: IC50; system: PDE4B1 (Homo sapiens, UniProt Q07343); submitted item: COc1ccc(C2=NN(C3CCN(C(=O)CNC(=O)c4c[nH]c5c(-c6c(OCC7CC7)ccc7c6OCO7)ncnc45)CC3)C(=O)C3(CCCC3)C2)cc1OC
1 to 10 nM

Form field - read-out: IC50; system: PDE4B1 (Homo sapiens, UniProt Q07343); submitted item: CCOc1ccc(C[C@@H](NC(=O)c2c(C)[nH]c3c(-c4cc(F)c(OC)cc4OCC4CC4)ncnc23)C(=O)N2CCC(N3N=C(c4ccc(OC)c(OC)c4)[C@H]4CCCC[C@H]4C3=O)CC2)cc1
1 to 10 nM

Form field - read-out: IC50; system: PDE4B1 (Homo sapiens, UniProt Q07343); submitted item: COc1ccc(C2=NN(C3CCN(C(=O)[C@H](CC4CCCCC4)NC(=O)c4c[nH]c5c(-c6c(OCC7CC7)ccc7c6OCO7)ncnc45)CC3)C(=O)C(C)(C)C2)cc1OC
1 to 10 nM
